Data provenance: patent US4015974A

System: redroot pigweed (Amaranthus retroflexus)
Test: Pre-emergence application, herbicidal effect on redroot pigweed (Table 1)
Format: in vivo
Parameters: key: 0: not damaged; 5: completely killed
Settings: 20 g./a., 20 days after application, score 0-5
property-name: Herbicidal effect, redroot pigweed
Answers are plain numbers.

Some solved cases for reference:
>  <compound>
CCCSP(=O)(OCC)SCC(=O)N1CCCC(C)C1 (centres unmarked)

>  <property-name>
Herbicidal effect, redroot pigweed

>  <value-observed>
5

$$$$
>  <compound>
CCOP(=O)(SCC)SCC(=O)N1CCCCC1C (centres unmarked)

>  <property-name>
Herbicidal effect, redroot pigweed

>  <value-observed>
5

$$$$
>  <compound>
CCCOP(=O)(SCCC(C)C)SCC(=O)N1CCCCC1CC (centres unmarked)

>  <property-name>
Herbicidal effect, redroot pigweed

>  <value-observed>
4

$$$$

Could you tell me Herbicidal effect, redroot pigweed for each of these compounds? They are listed below.
1. CCOP(=O)(SCC(=O)N1CCCCC1CC)SCC(C)C (centres unmarked)
2. CCOP(=O)(SCCC(C)C)SCC(=O)N1CCCC(C)C1 (centres unmarked)

RESULT:
[5, 4]

----------
Tested on: redroot pigweed (Amaranthus retroflexus)
Test: Pre-emergence application, herbicidal effect on redroot pigweed (Table 1)
Assay type: in vivo
Set-up: key: 0: not damaged; 5: completely killed
Conditions: 10 g./a., 20 days after application, score 0-5
property-name: Herbicidal effect, redroot pigweed
Answers are plain numbers.

Some solved cases for reference:
>  <molecule>
CCCOP(=O)(SC)SCC(=O)N1CCCCC1CC (stereo not shown)

>  <Herbicidal effect, redroot pigweed>
5

$$$$
>  <molecule>
CCOP(=O)(SCC(=O)N1CCCCC1C)SCc1ccc(C)cc1 (stereo not shown)

>  <Herbicidal effect, redroot pigweed>
4

$$$$
>  <molecule>
C=CCSP(=O)(OCCC)SCC(=O)N1CCCCC1CC (stereo not shown)

>  <Herbicidal effect, redroot pigweed>
3

$$$$
>  <molecule>
CCOP(=O)(SCC(=O)N1CCCCC1C)SC(C)c1ccccc1 (stereo not shown)

>  <Herbicidal effect, redroot pigweed>
3

$$$$
>  <molecule>
CCOP(=O)(SCCC(C)C)SCC(=O)N1CCCC(C)C1 (stereo not shown)

>  <Herbicidal effect, redroot pigweed>
4

$$$$

Could you tell me Herbicidal effect, redroot pigweed for each of these molecules? They are listed below.
1. CCCCOP(=O)(SCC(=O)N1CCCCC1CC)SCC(C)C (stereo not shown)
2. CCOP(=O)(SCC(=O)N1CCCCC1C)SCc1ccc(C(C)(C)C)cc1 (stereo not shown)
3. CCCCOP(=O)(SCC(=O)N1CCCCC1C)SCc1ccc(C)cc1 (stereo not shown)
4. CCOP(=O)(SCC(=O)N1CCCCC1C)SC(C)C (stereo not shown)
5. CCOP(=O)(SCCC(C)C)SCC(=O)N1CCCCC1CC (stereo not shown)

RESULT:
[3, 5, 3, 4, 4]

----------
Tested on: redroot pigweed (Amaranthus retroflexus)
Assay: Pre-emergence application, herbicidal effect on redroot pigweed (Table 1)
Format: in vivo
Conditions: 20 g./a., 20 days after application, score 0-5
property-name: Herbicidal effect, redroot pigweed
Give bare numbers.

>  <molecule>
CCCCCSP(=O)(OCCC)SCC(=O)N1CCCCC1C (centres unmarked) [Compound 68]

>  <Herbicidal effect, redroot pigweed>
4

$$$$

Could you tell me Herbicidal effect, redroot pigweed for each of these molecules? They are listed below.
1. CCOP(=O)(SCC(=O)N1CCCCC1CC)SC(C)C (centres unmarked) [Compound 76]
2. CCCCOP(=O)(SCC)SCC(=O)N1CCCCC1CC (centres unmarked) [Compound 92]
3. CCOP(=O)(SCC(=O)N1CCCCC1C)SCc1ccc(Cl)cc1 (centres unmarked) [Compound 49]

RESULT:
5
5
4

QUERY: Note Herbicidal effect, redroot pigweed for the molecule shown: CCCOP(=O)(SCCc1ccccc1)SCC(=O)N1CCCCC1CC (centres unmarked) [Compound 19]
RESULT: 4
